molecular target: FIH (Homo sapiens, UniProt Q9NWT6); construct: His6 (N, cleaved yes); made in house; host or cells: Escherichia coli BL21(DE3); experiment: FIH inhibition and metal dependence assays (2-OG decarboxylation, GST HIF-1α 775-826 as substrate); format: biochemical; settings: in vitro kinetic assays, recombinant FIH, GST HIF-1α 775-826 at 30 μM; read-out: IC50
Sequence (Q9NWT6 with tags, fused parts or gaps): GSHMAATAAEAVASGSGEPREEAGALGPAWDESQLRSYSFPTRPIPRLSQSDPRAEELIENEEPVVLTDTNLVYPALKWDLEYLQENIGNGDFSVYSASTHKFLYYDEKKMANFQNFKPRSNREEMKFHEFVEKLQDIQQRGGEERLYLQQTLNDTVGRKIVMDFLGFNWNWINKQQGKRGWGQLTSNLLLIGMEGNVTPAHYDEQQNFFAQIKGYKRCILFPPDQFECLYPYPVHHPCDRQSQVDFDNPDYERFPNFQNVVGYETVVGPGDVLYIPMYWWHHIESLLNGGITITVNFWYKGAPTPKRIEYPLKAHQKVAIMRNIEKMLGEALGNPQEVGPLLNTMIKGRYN
readout: pIC50
Please express pIC50 as -log10 of the molar concentration.

{"columns": ["molecule", "assay.result"],
 "data": [
  ["[Cl-].[Cl-].[Co+2] [Cobalt (II), cobalt (II) chloride]", 5.00]
]}

Field: next molecule
Check FIH (Homo sapiens, UniProt Q9NWT6) data and give pIC50 for [Cl-].[Cl-].[Zn+2] [zinc (II), zinc (II) chloride] . 5.00

###

molecular target: FIH (Homo sapiens, UniProt Q9NWT6); construct: His6 (N, cleaved yes); made in house; host or cells: Escherichia coli BL21(DE3); assay: FIH 2-OG decarboxylation (CO2 release) assay with HIF-1α polypeptide substrates; assay type: biochemical; details: standard assay conditions; polypeptide as FIH substrate
Where no end group is shown, it is not given here.
readout: CO2 released

{"columns": ["substance", "assay.result"],
 "data": [
  ["GST HIF-1α 775-826 N803A: GST HIF-1α 775-826 with Asn-803 mutated to alanine (PSDLACRLLGQSMDESGLPQLTSYDCEVAAPIQGSRNLLQGEELLRALDQVN; cysteine pairing not given here; also: GST fusion, not in chain)", "<0.001 nmol"],
  ["GST HIF-1α 775-826 N803D: GST HIF-1α 775-826 with Asn-803 mutated to aspartate (PSDLACRLLGQSMDESGLPQLTSYDCEVDAPIQGSRNLLQGEELLRALDQVN; cysteine pairing not given here; also: GST fusion, not in chain; UniProt Q16665 775-826, looked up, variant N803D)", "0.22 nmol"],
  ["GST HIF-1α 775-826 N803Q: GST HIF-1α 775-826 with Asn-803 mutated to glutamine (PSDLACRLLGQSMDESGLPQLTSYDCEVQAPIQGSRNLLQGEELLRALDQVN; cysteine pairing not given here; also: GST fusion, not in chain; UniProt Q16665 775-826, looked up, variant N803Q)", "<0.001 nmol"]
]}

Field: next substance
Let me know recorded CO2 released for GST HIF-1α 775-826 N803E: GST HIF-1α 775-826 with Asn-803 mutated to glutamate (PSDLACRLLGQSMDESGLPQLTSYDCEVEAPIQGSRNLLQGEELLRALDQVN; cysteine pairing not given here; also: GST fusion, not in chain; UniProt Q16665 775-826, looked up, variant N803E) , thanks. <0.001 nmol

###

Here, each record is paired with measured % activity relative to 775-826 peptide data.
molecular target: FIH (Homo sapiens, UniProt Q9NWT6); construct: His6 (N, cleaved yes); made in house; host or cells: Escherichia coli BL21(DE3); assay: FIH 2-OG decarboxylation (CO2 release) assay with HIF-1α polypeptide substrates; type: biochemical; conditions: same conditions; polypeptide as FIH substrate
Where no end group is shown, it is not given here.

Examples from the recorded data:
{"columns": ["substance", "% activity relative to 775-826 peptide"],
 "data": [
  ["GST HIF-1α 775-826 N803E: GST HIF-1α 775-826 with Asn-803 mutated to glutamate (PSDLACRLLGQSMDESGLPQLTSYDCEVEAPIQGSRNLLQGEELLRALDQVN; cysteine pairing not given here; also: GST fusion, not in chain; UniProt Q16665 775-826, looked up, variant N803E)", "<0.01%"],
  ["GST HIF-1α 775-826 N803Q: GST HIF-1α 775-826 with Asn-803 mutated to glutamine (PSDLACRLLGQSMDESGLPQLTSYDCEVQAPIQGSRNLLQGEELLRALDQVN; cysteine pairing not given here; also: GST fusion, not in chain; UniProt Q16665 775-826, looked up, variant N803Q)", "<0.01%"],
  ["GST HIF-1α 775-826 N803D: GST HIF-1α 775-826 with Asn-803 mutated to aspartate (PSDLACRLLGQSMDESGLPQLTSYDCEVDAPIQGSRNLLQGEELLRALDQVN; cysteine pairing not given here; also: GST fusion, not in chain; UniProt Q16665 775-826, looked up, variant N803D)", "7%"]
]}

Let me know recorded % activity relative to 775-826 peptide for GST HIF-1α 775-826 N803A: GST HIF-1α 775-826 with Asn-803 mutated to alanine (PSDLACRLLGQSMDESGLPQLTSYDCEVAAPIQGSRNLLQGEELLRALDQVN; cysteine pairing not given here; also: GST fusion, not in chain) , thanks. <0.01%

###

target: FIH (Homo sapiens); construct: His6 (N, cleaved yes); made in house; host or cells: Escherichia coli BL21(DE3); assay: FIH inhibition and metal dependence assays (2-OG decarboxylation, GST HIF-1α 775-826 as substrate); type: biochemical
readout: IC50 (µM)
The figure you give is taken to be in µM; do not add the unit.

Let me know recorded IC50 for O=C(O)CNC(=O)C(=O)O [N-oxaloylglycine, reference compound] , thanks. 25
